Hello, the source for this data is patent US8959984B2, in case you need it.

Biological target: p38a (Homo sapiens)
Construct: endogenous in cells; host or cells: HeLa S3
Sequence (Q16539 whole entry): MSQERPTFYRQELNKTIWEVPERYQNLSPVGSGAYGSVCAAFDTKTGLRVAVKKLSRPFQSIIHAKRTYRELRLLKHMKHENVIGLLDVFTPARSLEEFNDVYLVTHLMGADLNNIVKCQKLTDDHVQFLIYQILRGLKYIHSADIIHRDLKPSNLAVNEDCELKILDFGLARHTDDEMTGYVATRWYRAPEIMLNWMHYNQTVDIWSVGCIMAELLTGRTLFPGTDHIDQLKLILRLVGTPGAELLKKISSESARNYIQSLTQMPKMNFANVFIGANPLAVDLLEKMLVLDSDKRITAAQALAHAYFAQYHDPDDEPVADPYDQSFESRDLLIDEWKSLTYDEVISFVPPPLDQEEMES
Assay: binding to immobilized V16742 (IVA1/IVA2, HeLa lysate, MS)
Conditions: p38a (IPI00221141.2); average of two experiments; read-out: Kd Avg
pKd: −log10 of the molar value.
measured attribute: pKd

>>> print(df.to_string())
                                   compound         study_target  test_result
0  CC(C)n1c(=O)ccc2cnc(Nc3ccc(OCCN)cc3)nc21 [V16742]  p38a (Homo sapiens)         3.95

---

Molecular target: RIOK2 (Homo sapiens, UniProt Q9BVS4)
Construct: endogenous in cells; host or cells: HeLa S3
Sequence (Q9BVS4 whole entry): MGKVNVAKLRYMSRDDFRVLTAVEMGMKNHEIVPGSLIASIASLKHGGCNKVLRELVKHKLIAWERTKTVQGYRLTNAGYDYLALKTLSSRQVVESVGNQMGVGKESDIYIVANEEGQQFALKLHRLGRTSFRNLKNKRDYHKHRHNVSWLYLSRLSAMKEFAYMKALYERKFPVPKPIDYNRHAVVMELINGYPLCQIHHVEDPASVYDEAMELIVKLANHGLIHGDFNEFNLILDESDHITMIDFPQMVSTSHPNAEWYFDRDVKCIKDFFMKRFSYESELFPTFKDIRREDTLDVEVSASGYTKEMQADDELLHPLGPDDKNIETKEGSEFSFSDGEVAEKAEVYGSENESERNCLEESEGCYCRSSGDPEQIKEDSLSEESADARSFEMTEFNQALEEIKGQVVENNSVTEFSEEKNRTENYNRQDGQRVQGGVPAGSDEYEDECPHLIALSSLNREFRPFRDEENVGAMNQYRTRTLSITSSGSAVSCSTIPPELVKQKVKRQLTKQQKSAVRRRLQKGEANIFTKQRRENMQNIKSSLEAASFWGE
Test: binding to immobilized V16742 (IVA1/IVA2, HeLa lysate, MS)
Settings: Experiment 1, read-out: Kd
pKd: −log10 of the molar value.
measured attribute: pKd

In [3]: df
Out[3]:
                               smiles_entry                          study_target  measured_attribute  test_result
0  CC(C)n1c(=O)ccc2cnc(Nc3ccc(OCCN)cc3)nc21  RIOK2 (Homo sapiens, UniProt Q9BVS4)                 pKd         4.37
